# SYSTEM NAME: Potassium voltage-gated channel subfamily KQT member 2 (Rattus norvegicus) (UniProt O88943)
# Sequence (O88943 whole entry, looked up): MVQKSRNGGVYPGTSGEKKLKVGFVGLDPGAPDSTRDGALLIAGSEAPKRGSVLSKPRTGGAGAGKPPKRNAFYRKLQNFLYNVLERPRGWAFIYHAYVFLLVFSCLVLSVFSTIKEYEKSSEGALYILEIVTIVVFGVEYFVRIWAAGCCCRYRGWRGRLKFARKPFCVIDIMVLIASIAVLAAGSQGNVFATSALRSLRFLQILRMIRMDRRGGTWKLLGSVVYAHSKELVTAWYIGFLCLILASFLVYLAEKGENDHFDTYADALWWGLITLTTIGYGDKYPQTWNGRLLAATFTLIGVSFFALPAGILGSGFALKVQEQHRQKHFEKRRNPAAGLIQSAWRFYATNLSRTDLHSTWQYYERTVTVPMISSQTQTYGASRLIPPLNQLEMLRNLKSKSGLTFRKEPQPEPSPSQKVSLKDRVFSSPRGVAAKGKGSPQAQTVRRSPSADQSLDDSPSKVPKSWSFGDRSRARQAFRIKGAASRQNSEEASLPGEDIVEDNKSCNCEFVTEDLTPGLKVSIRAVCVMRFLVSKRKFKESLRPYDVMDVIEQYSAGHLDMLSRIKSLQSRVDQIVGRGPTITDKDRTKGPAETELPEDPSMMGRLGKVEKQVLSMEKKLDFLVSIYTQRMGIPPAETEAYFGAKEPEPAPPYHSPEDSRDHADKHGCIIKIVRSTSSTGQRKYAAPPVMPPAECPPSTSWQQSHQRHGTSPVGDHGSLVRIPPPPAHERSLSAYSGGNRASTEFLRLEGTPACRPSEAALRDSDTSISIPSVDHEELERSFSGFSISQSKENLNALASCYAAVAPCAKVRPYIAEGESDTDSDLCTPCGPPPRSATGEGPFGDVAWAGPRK
# ASSAY INFO: KCNQ2 blockade in CHO cells – cell-based, FluxOR thallium flux, counter-screen for hERG block protector project, confirmation (AID 1946)
# CONDITION CONTEXT: FluxOR thallium flux fluorescence, at 10 µM, active compounds read low, zero marks the 3-SD hit cutoff
Out of some 2,400 compounds screened, about 180 (7.5%) were called active. This is one part of a sample in which actives are shown more often than they occur.
MEASURE NAME: activity change vs negative control (%)
Numbers only, in %.

| SMILES TEXT | activity change vs negative control (%) |
| --- | --- |
| O=C(NC(=S)Nc1ccccc1N1CCCC1)c1ccco1 | 39 |
| S=c1nc(C2CCCCC2)n(-c2ccccc2)[nH]1 | 72.6 |
| O=C(NC(=S)Nc1ccccc1N1CCCC1)c1cccs1 | 14.1 |
| C=CCn1c(=S)[nH]c2sc3c(c2c1=O)CCCC3 | 60.7 |
| O=C(NC(=S)Nc1cccc(Cl)c1N1CCCCC1)c1cccs1 | 1.9 |

## Input Using the record for `O=C(NC(=S)Nc1ccccc1N1CCCC1)c1ccc([N+](=O)[O-])cc1` , report its activity change vs negative control.
## Output 21.1
